- Tested on: Ser. marcescens W-35
- assayNotes: Minimum inhibitory concentration (MIC), Heart Infusion agar
- Format: cell-based
- studyConditions: Serratia marcescens, W35, 20 h, Ser. marcescens W-35; 10^6 cells/ml; 20 hours, 37° C. (Table 1); read-out: minimum inhibitory concentration (MIC)
propertyMeasured: MIC (µg/mL)

Known results for compounds:
>>> measurement("CCN1CCN(C(=O)NC(C(=O)N[C@]2(OC)C(=O)N3C(C(=O)O)=C(CSc4nnnn4C)CS[C@@H]32)C2=CCC=CC2)C(=O)C1=O (stereo partly drawn)")
50
>>> measurement("CCN1CCN(C(=O)NC(C(=O)N[C@]2(OC)C(=O)N3C(C(=O)O)=C(CSc4nnnn4CCO)CS[C@@H]32)c2cccs2)C(=O)C1=O (stereo partly drawn)")
12.5

(a) CCN1CCN(C(=O)NC(C(=O)N[C@]2(OC)C(=O)N3C(C(=O)O)=C(CSc4nnnn4C)CS[C@@H]32)c2ccco2)C(=O)C1=O (stereo partly drawn)
(b) CCN1CCN(C(=O)NC(C(=O)N[C@]2(OC)C(=O)N3C(C(=O)O)=C(CSc4nnnn4CC(C)=O)CS[C@@H]32)c2cccs2)C(=O)C1=O (stereo partly drawn)
(c) CCN1CCN(C(=O)NC(C(=O)N[C@]2(OC)C(=O)N3C(C(=O)O)=C(CSc4nnnn4CC(=O)NO)CS[C@@H]32)c2cccs2)C(=O)C1=O (stereo partly drawn)
(d) CCN1CCN(C(=O)NC(C(=O)N[C@]2(OC)C(=O)N3C(C(=O)O)=C(CSc4nnnn4CC(N)=O)CS[C@@H]32)c2ccco2)C(=O)C1=O (stereo partly drawn)
Problem: Arrange the 4 entries by MIC so the values rise. Lab note: record answer as labels in requested order.
Solution: d, a, b, c

====

The compounds listed here are annotated with their Stability to β-lactamase, relative degree of hydrolysis.
- studyTarget: Cephalosporinase (E. coli GN-5482) (Escherichia coli, UniProt P00811)
- Construct: native preparation, details not in excerpts
- Sequence (P00811 20-377): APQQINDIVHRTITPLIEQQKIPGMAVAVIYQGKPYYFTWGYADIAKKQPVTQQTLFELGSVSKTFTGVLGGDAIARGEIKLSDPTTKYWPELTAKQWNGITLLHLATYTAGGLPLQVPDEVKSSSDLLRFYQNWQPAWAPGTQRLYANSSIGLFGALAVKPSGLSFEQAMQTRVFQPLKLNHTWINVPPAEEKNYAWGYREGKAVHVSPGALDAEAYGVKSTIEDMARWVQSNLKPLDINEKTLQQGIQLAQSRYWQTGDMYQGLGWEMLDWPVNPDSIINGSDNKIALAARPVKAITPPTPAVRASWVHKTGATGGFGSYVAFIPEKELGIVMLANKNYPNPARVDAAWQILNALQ
- assayNotes: Stability to β-lactamase, iodometry (Perret)
- Format: biochemical
- studyConditions: E. coli GN-5482 cephalosporinase; CER = 100; 30° C., pH 7.0
- Method: The stability to β-lactamase was examined by iodometry at 30° C. by the method of Perret (Perret, C. J., "Iodometric assay of penicillinase", Nature, 174, 1012-1013 (1954)), except that a 0.1 M phosphate buffer solution (pH 7.0) was used in place of the 0.2 M phosphate buffer solution (pH 6.5). […]
// no unit string in output, number only

For orientation, consider the following solved cases.
>>> measurement("O=C(Cc1cccs1)N[C@@H]1C(=O)N2C(C(=O)[O-])=C(C[n+]3ccccc3)CS[C@H]12 [CER, Cephaloridin]")
100
>>> measurement("CC1(C)S[C@@H]2[C@H](NC(=O)Cc3ccccc3)C(=O)N2[C@H]1C(=O)O [PC-G, Penicillin G]")
22

Now, please, on to the next compound.
Problem: Report measured Stability to β-lactamase, relative degree of hydrolysis; entry is Cc1nnc(SCC2=C(C(=O)O)N3C(=O)[C@@H](NC(=O)Cn4cnnn4)[C@H]3SC2)s1 [CEZ, Cefazolin]
Solution: 130

====

- System: Citrobacter N-7
- assayNotes: Minimum inhibitory concentration (MIC), Heart Infusion agar
- Type: cell-based
- studyConditions: N7; Citrobacter N-7; 10^6 cells/ml; 20 hours, 37° C.; read-out: minimum inhibitory concentration (MIC)
- Description: Antibacterial activities of the representative compounds (Ib) of the 7α-methoxycephalosporins according to this invention are shown in Table 1. [drawing 20] […]
propertyMeasured: MIC (µg/mL)

# annotated cases, reported MIC shown
>>> measurement("CCN1CCN(C(=O)NC(C(=O)N[C@]2(OC)C(=O)N3C(C(=O)O)=C(CSc4nnnn4CC(N)=O)CS[C@@H]32)c2cccs2)C(=O)C1=O (stereo partly drawn)")
3.13
>>> measurement("CCN1CCN(C(=O)NC(C(=O)N[C@]2(OC)C(=O)N3C(C(=O)O)=C(CSc4nnnn4C)CS[C@@H]32)C2=CCC=CC2)C(=O)C1=O (stereo partly drawn)")
6.25
>>> measurement("CCN1CCN(C(=O)NC(C(=O)N[C@]2(OC)C(=O)N3C(C(=O)O)=C(CSc4nnnn4CC(=O)O)CS[C@@H]32)c2cccs2)C(=O)C1=O (stereo partly drawn)")
1.56
>>> measurement("CCN1CCN(C(=O)N[C@@H](C(=O)N[C@]2(OC)C(=O)N3C(C(=O)O)=C(COC(C)=O)CS[C@@H]32)c2cccs2)C(=O)C1=O [OCOCH3]")
3.13
>>> measurement("CCN1CCN(C(=O)NC(C(=O)N[C@]2(OC)C(=O)N3C(C(=O)O)=C(CSc4nnnn4CC(C)=NO)CS[C@@H]32)c2cccs2)C(=O)C1=O (stereo partly drawn)")
6.25

(a) CCN1CCN(C(=O)NC(C(=O)N[C@]2(OC)C(=O)N3C(C(=O)O)=C(CSc4nnnn4CC(C)=O)CS[C@@H]32)c2cccs2)C(=O)C1=O (stereo partly drawn)
(b) CCN1CCN(C(=O)NC(C(=O)N[C@]2(OC)C(=O)N3C(C(=O)O)=C(CSc4nnn(CCN(C)C)n4)CS[C@@H]32)c2cccs2)C(=O)C1=O (stereo partly drawn)
Problem: Compare reported MIC values for a and b . Which is lower? State the label of the item chosen.
Solution: b
(b: 3.13 µg/mL, a: 6.25 µg/mL)
